Data provenance is paper PMC9189931.

- ASSAY_TARGET: human sodium-dependent serotonin transporter (Homo sapiens, UniProt P31645)
- Sequence (P31645 whole entry): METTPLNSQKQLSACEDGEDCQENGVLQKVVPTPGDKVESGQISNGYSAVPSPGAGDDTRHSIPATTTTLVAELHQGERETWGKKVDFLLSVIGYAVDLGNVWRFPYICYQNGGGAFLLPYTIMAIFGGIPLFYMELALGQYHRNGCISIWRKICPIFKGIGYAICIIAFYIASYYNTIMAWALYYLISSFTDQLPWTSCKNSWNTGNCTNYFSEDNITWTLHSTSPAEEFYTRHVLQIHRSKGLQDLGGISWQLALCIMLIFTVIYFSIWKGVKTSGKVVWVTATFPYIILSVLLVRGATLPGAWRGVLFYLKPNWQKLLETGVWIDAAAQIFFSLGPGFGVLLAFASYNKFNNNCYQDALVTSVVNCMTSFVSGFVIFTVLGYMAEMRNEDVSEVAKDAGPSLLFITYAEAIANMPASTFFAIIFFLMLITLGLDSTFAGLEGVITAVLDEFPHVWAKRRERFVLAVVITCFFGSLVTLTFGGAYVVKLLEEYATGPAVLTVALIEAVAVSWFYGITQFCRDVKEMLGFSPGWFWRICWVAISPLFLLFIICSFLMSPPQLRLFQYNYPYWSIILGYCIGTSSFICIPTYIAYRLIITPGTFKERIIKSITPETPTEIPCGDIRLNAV
OUTCOME_MEASURE: pKi
// field semantics: pKi = negative decimal log of concentration (mol/L)

The reported pKi value, human sodium-dependent serotonin transporter (Homo sapiens, UniProt P31645), for `O=C1COc2cc(C(=O)N(Cc3ccc(C(=O)Nc4ccncn4)cc3)C3CC3)ccc2N1` reads 5.85

* * *

- ASSAY_TARGET: fl-NSD2 interaction with nucleosomal H3K36me2 (Homo sapiens, UniProt O96028)
- Sequence (O96028 whole entry): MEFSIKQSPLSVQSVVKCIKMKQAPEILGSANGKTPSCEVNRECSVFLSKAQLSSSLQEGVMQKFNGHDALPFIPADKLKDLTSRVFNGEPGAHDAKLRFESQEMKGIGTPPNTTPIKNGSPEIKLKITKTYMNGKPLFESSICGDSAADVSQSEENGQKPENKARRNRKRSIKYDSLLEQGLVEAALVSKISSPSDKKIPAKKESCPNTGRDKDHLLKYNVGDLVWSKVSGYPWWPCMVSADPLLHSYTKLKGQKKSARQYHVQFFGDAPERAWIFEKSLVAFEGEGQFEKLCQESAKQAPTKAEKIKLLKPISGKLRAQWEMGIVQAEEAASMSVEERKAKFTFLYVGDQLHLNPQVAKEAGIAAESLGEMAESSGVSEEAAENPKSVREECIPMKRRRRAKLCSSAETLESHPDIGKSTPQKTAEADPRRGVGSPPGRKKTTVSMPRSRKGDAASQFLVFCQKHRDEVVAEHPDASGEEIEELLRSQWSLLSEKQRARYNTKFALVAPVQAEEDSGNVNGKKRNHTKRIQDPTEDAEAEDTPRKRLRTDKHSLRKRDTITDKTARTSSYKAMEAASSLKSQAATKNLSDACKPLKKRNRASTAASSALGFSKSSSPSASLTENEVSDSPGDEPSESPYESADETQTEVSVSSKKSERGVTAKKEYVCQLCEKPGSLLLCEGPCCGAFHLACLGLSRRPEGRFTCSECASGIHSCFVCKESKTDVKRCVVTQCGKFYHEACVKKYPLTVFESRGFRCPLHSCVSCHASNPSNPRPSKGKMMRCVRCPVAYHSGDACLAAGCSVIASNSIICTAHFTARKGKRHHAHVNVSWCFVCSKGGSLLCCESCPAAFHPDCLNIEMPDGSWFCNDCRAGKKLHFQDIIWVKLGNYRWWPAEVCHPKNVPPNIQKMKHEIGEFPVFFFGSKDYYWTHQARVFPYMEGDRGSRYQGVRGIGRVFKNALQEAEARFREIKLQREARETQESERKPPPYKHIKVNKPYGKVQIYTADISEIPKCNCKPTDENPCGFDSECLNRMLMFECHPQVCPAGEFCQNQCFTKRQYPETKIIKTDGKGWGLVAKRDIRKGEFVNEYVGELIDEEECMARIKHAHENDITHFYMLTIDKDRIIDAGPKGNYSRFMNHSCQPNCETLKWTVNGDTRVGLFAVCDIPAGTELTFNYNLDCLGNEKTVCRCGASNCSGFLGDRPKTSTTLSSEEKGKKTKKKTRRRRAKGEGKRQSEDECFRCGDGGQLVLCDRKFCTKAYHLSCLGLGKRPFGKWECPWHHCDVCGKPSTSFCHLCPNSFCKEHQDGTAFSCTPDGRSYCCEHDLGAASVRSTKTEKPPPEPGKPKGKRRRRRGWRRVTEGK
- MEASUREMENT_DESCRIPTION: AlphaScreen
- EXPERIMENTAL_CONDITIONS: read-out: IC50, disengagement of fl-NSD2 from nucleosomal H3K36me2, in the presence of SSD (2 μg ml^−1)
OUTCOME_MEASURE: IC50 (µM)
Answer in µM, number only, no unit symbol.

// recorded IC50 for `CC(C)N(Cc1ccc(C(=O)Nc2ccncn2)cc1)C(=O)c1ccc2c(c1)OCC(=O)N2` : 5.1
